Measured values drawn from patent US7267715B2 for this set.

Assay: Oxidation potential by cyclic voltammetry
Type: physicochemical
Conditions: test method of the specification (dimethylformamide, tetrapropylammonium perchlorate)
Protocol: More specifically, a test sample is dissolved to a concentration of 1×10^−6 to 1×10^−4 mol/liter in a solvent such as dimethylformamide or acetonitrile containing a supporting electrolyte such as sodium perchlorate or tetrapropylammonium perchlorate and the oxidation potential is measured as a value to SCE (saturated calomel electrode) using a cyclic voltammetry. […]
property: oxidation potential

>>> reading("Cc1c(C#N)c(Nc2ccc(S(=O)(=O)[O-])cc2)nc(Nc2ccc(S(=O)(=O)[O-])cc2)c1N=Nc1sc(N=Nc2cc(C(=O)[O-])cc(C(=O)[O-])c2)cc1C#N.[Li+].[Li+].[Li+].[Li+]")
"1.32 V (vs SCE)"
>>> reading("CC(C)(C)c1nn(-c2nc(Nc3cc(C(=O)[O-])cc(C(=O)[O-])c3)nc(Nc3cc(C(=O)[O-])cc(C(=O)[O-])c3)n2)c(N)c1/N=N/c1ncns1.[Na+].[Na+].[Na+].[Na+]")
"1.25 V (vs SCE)"
>>> reading("Cc1cc(C)c(S(=O)(=O)[O-])c(C)c1Nc1nc(N(c2nc3ccc(S(=O)(=O)[O-])cc3s2)c2c(C)cc(C)c(S(=O)(=O)O)c2C)ccc1/N=N/c1c(C#N)c(C(C)(C)C)nn1-c1nc2ccc(S(=O)(=O)[O-])cc2s1.[K+].[K+].[Na+]")
"1.29 V (vs SCE)"
>>> reading("CC(C)CSc1nnc(/N=N/c2c(C(C)(C)C)nn(-c3nc(Nc4cc(C(=O)[O-])cc(C(=O)[O-])c4)nc(Nc4cc(C(=O)[O-])cc(C(=O)[O-])c4)n3)c2N)s1.[K+].[K+].[K+].[K+]")
"1.22 V (vs SCE)"
